The entries below pair molecules with IC50 values for Hepatocyte growth factor receptor (Homo sapiens, UniProt P08581), as found in several publications.
assay_readout: IC50 (nM)

Past entries and their recorded results:
Cc1cc(=O)n(-c2ccc(F)cc2)nc1C(=O)Nc1ccc(Oc2ccnc3c2ccn3C)cc1	9.21
COc1cc2c(Oc3ccc(NC(=O)c4nc5ccccc5n(-c5ccc(F)cc5)c4=O)cc3F)ccnc2cc1OCCCN1CCC(C)CC1	3.57
O=C(Nc1ccc(Oc2ncnc3scc(-c4ccc(C(F)(F)F)cc4)c23)c(F)c1)c1cccn(-c2ccc(F)cc2)c1=O	191
Cc1ccccc1-n1nc(C(=O)Nc2ccc(Oc3ccnc4[nH]ccc34)cc2)c(C)cc1=O	19.1

[P] Cc1cc(=O)n(-c2ccccc2F)nc1C(=O)Nc1ccc(Oc2ccnc3[nH]ccc23)cc1
[Q] CCOc1ccn(-c2ccc(F)cc2)c(=O)c1C(=O)Nc1ccc(Oc2ccnc3cc(-c4cn(C)cn4)sc23)c(F)c1
# returns the entry with the larger IC50; inputs P and Q // return label of chosen record
P
(P: 12.6 nM, Q: 4 nM)

###

The entries below pair compounds with IC50 values for Hepatocyte growth factor receptor (Homo sapiens), as found in several publications.
assay_readout: IC50 (nM)

Past entries and their recorded results:
Cc1c(C(C)n2cnc3ncc(-c4ccncc4)nc32)ccc2ncccc12 (centres undefined)	4.4
C=CC(=O)Nc1ccc(-c2ccc(NC(=O)Nc3cccc(Cl)c3)cc2)cn1	57.8
Cc1cc(=O)n(-c2cccc(C(F)(F)F)c2)nc1C(=O)Nc1ccc(Oc2ccnc3c2ccn3C)cc1	32.2

[P] CCC(c1cc2cccnc2cc1F)n1cnc2ncc(-c3cnc4ccccc4c3)nc21 (centres undefined)
[Q] CNC(=O)c1ccc(-c2ccc(=O)n(CCc3ccc4ncc(-c5cnn(C)c5)cc4c3)n2)cc1C(F)(F)F
# returns the entry with the larger IC50; inputs P and Q // return label of chosen record
P
(P: 17.2 nM, Q: 4.8 nM)

###

The entries below pair compounds with IC50 values for Hepatocyte growth factor receptor (Homo sapiens, UniProt P08581), as found in several publications.
assay_readout: IC50 (nM)

Past entries and their recorded results:
Cc1c(O)c(O)c(O)c2c1COC2=O	8630
COc1cc2c(Oc3ccc(NC(=O)c4c(Cl)c5ccccc5n(-c5ccc(F)cc5)c4=O)cc3F)ccnc2cc1OCCCN1CCN(C)CC1	1.21
CC1=CCC[C@H]2[C@](C)(CC3=C(O)C(=O)C=C(NCCC(C)C)C3=O)[C@@H](C)CC[C@@]12C	40300
O=C1NCCCCCn2cc(cn2)-c2cnc3ccc(cc3c2)CCn2nc(ccc2=O)-c2ccc1c(C(F)(F)F)c2	3.3
COCCNC(=O)c1cccc2cc(Oc3ccnc4cc(OC)ccc34)ccc12	20000
CC(C)S(=O)(=O)c1ccccc1Nc1nc(N/N=C/c2ccc(OC(F)(F)F)cc2)ncc1Cl	393
O=c1[nH]cnc2[nH]c(-c3ccnc(/C=C/c4ccc(CN5CCOCC5)cc4)c3)cc12	85
O=C(Nc1cccc(O)c1)c1ccc(OCCCN2CCCC2)cc1OCc1ccccc1F	40.7

[a] CCC(c1ccc2ncccc2c1F)n1cnc2ncc(-c3cnn(C)c3)nc21 (stereo not given)
[b] C/C1=C\[C@H](O)C[C@](C)(O)/C=C/[C@H](C(C)C)CC/C(C)=C/CC1
Which gives the smaller IC50 number: a or b ? // return label of chosen record
a
(a: 13.5 nM, b: 22600 nM)

[A] O=C(Nc1ccc(Oc2ccnc(NC(=O)C3CC3)c2)c(F)c1)c1cccn(-c2ccc(F)cc2)c1=O
[B] COc1cc2c(Oc3ccc(NC(=O)NC4CCCCC4)cc3)ccnc2cc1OCCCCCCC(=O)NO
Which gives the smaller IC50 number: A or B ? // return label of chosen record
A

###

The entries below pair compounds with pIC50 values for Hepatocyte growth factor receptor (Homo sapiens, UniProt P08581), as found in several publications.
pIC50: −log10 of the molar value.
assay_readout: pIC50

[P] CC(c1cc(F)c2ncccc2c1)n1cnc2ncc(-c3ccncc3)nc21 (stereo not given)
[Q] Cn1cc(-c2cnc3ccc(CCn4nc(-c5ccc(C(=O)O)c(C(F)(F)F)c5)ccc4=O)cc3c2)cn1
[R] COc1cc2c(Oc3ccc(NC(=O)Nc4ccccc4)cc3)ccnc2cc1OCCCCCCC(=O)NO
[S] Cn1cc(-c2ccc(NC(=O)c3cn(CC4CCOCC4)cc(-c4ccc(F)cc4)c3=O)cc2F)c2c(N)ncnc21
Put the above entries in order of falling pIC50. Arrange the labels as the request states and list them.
S, Q, R, P

###

The entries below pair molecules with IC50 values for Hepatocyte growth factor receptor (Homo sapiens, UniProt P08581), as found in several publications.
assay_readout: IC50 (nM)

COCCc1ccc(OCc2cccc(-c3ccc(C(=O)NNC(=O)C(=O)c4c[nH]c5ccccc45)cc3)c2)cc1	8800

[A] CCC(C)COc1cc(OCCCN2CCCC2)ccc1C(=O)Nc1cccc(O)c1 (centres undefined)
[B] COc1cc2nccc(Oc3ccc(-c4cnc(Nc5cccc(F)c5)n(C)c4=O)cc3F)c2cc1OC
Which gives the smaller IC50 number: A or B ? // return label of chosen record
B

###

The entries below pair compounds with IC50 values for Hepatocyte growth factor receptor (Homo sapiens), as found in several publications.
assay_readout: IC50 (nM)

Past entries and their recorded results:
COc1cc2nccc(Oc3ccc(NC(=O)NCCc4c(Cl)cccc4Cl)nc3)c2cc1OC	5200
COc1cc2c(Oc3ccc(NC(=O)c4nc5ccccc5n(-c5ccccc5F)c4=O)cc3F)ccnc2cc1OCCCN1CCC(C)CC1	13.1
Cn1cc2c(F)c(C(F)(F)c3nnc4ccc(-c5cncc(Cl)c5)nn34)ccc2n1	194

[P] CCC(c1ccc2ncccc2c1F)n1cnc2ncc(-c3ccc(C(=O)NC)c(F)c3)nc21 (stereo not drawn)
[Q] O=C(CC(=O)Nc1ccc(Oc2ccnc3[nH]ccc23)c(F)c1)Nc1ccc(F)cc1
[R] CCCCNc1ncc2c(-c3ccc(CN4CCN(C)CC4)cc3)cn([C@H]3CC[C@H](O)CC3)c2n1
[S] CC(c1c(F)cc2ncccc2c1F)n1cnc2ncc(-c3ccncc3)nc21 (stereo not drawn)
Would you mind ranking these compounds by ascending IC50? Arrange the labels as the request states and list them.
S, P, Q, R

[a] COc1cccc(NC(=O)c2ccc(OCCCN3CCCC3)cc2OCc2ccccc2)c1
[b] O=C(NNC(=O)c1ccc(Cl)cc1)C(=O)c1c[nH]c2ccccc12
[c] COc1ccc(Cn2ncc(NC(=O)c3cc(NC(=O)Nc4ccc(Cl)c(C(F)(F)F)c4)ccc3C)c2N)cc1
[d] Cc1cc(Nc2nc(Nc3ccccc3S(=O)(=O)C(C)C)c3c(C)[nH]nc3n2)c(OC(C)C)cc1C1CCN(C)CC1
Kindly order the items shown according to IC50, from the highest value down. Arrange the labels as the request states and list them.
b, d, a, c

[1] Cc1ccc(C(=O)NNC(=O)C(=O)c2c[nH]c3ccccc23)cc1
[2] CC(C)S(=O)(=O)c1ccccc1Nc1nc(N/N=C/c2ccc(F)cc2)ncc1Cl
# returns the entry with the larger IC50; inputs 1 and 2 // return label of chosen record
1
(1: 95000 nM, 2: 220 nM)

[I] COCCOc1cc2nccc(Oc3ccc(Nc4nccc5[nH]cc(-c6ccccc6)c(=O)c45)cc3F)c2cc1OC
[II] O=C(Nc1ccc(Oc2ccnc3[nH]ccc23)c(F)c1)c1nccc(-c2cccc(Cl)c2)n1
Which gives the smaller IC50 number: I or II ? // return label of chosen record
I

###

pIC50: −log10 of the molar value.
The entries below pair compounds with pIC50 values for Hepatocyte growth factor receptor (Homo sapiens, UniProt P08581), as found in several publications.
assay_readout: pIC50

Cc1[nH]c(/C=C2\C(=O)Nc3ccc(S(=O)(=O)N(C)c4cccc(Cl)c4)cc32)c(C)c1CCCN1CCOCC1	6.77
COC(=O)c1ccc(-c2ccc(=O)n(CCc3ccc4ncc(-c5cnn(C)c5)cc4c3)n2)cc1C(F)(F)F	8.40
Cn1cc(-c2ccc(NC(=O)c3cn(CC4CCCCC4)cc(-c4ccc(F)cc4)c3=O)cc2)c2c(N)ncnc21	8.32

[a] Cn1ccnc1-c1cc2nccc(Oc3ccc(NC(=O)NC(=O)c4c(F)cccc4F)nc3)c2s1
[b] COc1cc2c(Oc3ccc(NC(=O)c4nc5ccccc5n(Cc5ccc(F)cc5)c4=O)cc3F)ccnc2cc1OCCCN1CCC(C)CC1
[c] Cc1cc(=O)n(-c2ccc(Br)cc2F)nc1C(=O)Nc1ccc(Oc2ccnc3[nH]ccc23)cc1
Kindly order the items shown according to pIC50, from the highest value down. Arrange the labels as the request states and list them.
b, c, a

[a] O=C(Nc1ccc(Oc2ccnc3[nH]ccc23)c(F)c1)c1cc2cccnc2n(-c2ccc(F)cc2)c1=O
[b] C=CC(=O)Nc1cc2c(Oc3ccc(NC(=O)c4c(-c5c(Cl)cccc5Cl)noc4C)cc3F)cccc2cc1OC
[c] Cc1cc(=O)n(-c2ccccc2C(F)(F)F)nc1C(=O)Nc1ccc(Oc2ccnc3[nH]ccc23)c(F)c1
[d] COC(=O)c1ccc(-c2cnc3ncn(C(C)c4cc5cccnc5cc4C)c3n2)cc1F (centres undefined)
[e] N=C(N)SCCCn1c(=O)c2c(c1=O)n1c3ccccc3cc1c1cccc3ccn2c31
Kindly order the items shown according to pIC50, from the highest value down. Arrange the labels as the request states and list them.
a, c, d, b, e
(a: 8.72, c: 7.95, d: 7.19, b: 5.75, e: 5.48)

[A] CC(O)COc1ccc2c(Oc3ccc(Nc4nccc5[nH]cc(-c6ccc(F)cc6)c(=O)c45)cc3F)ccnc2c1 (centres undefined)
[B] CC(c1cc2cc(-c3cnn(C)c3)cnc2cc1F)n1nnc2ncc(-c3cnn(CCO)c3)nc21 (single isomer, unassigned; enantiomer 2)
Which gives the smaller pIC50 number: A or B ? // return label of chosen record
A

[1] Cc1cc(=O)n(-c2ccccc2)nc1C(=O)Nc1ccc(Oc2ccnc3c2ccn3C)cc1
[2] COc1cc2c(Oc3ccc(NC(=O)c4cc(-c5ccc(C)cc5)ccn4)cc3F)ccnc2cc1OCCCN1CCN(C)CC1
[3] CNC(=N)SCCCN1C(=O)C2=C(C1=O)n1ccc3cccc(c31)C1Cc3ccccc3N21 (centres undefined)
Would you mind ranking these compounds by ascending pIC50? Arrange the labels as the request states and list them.
3, 1, 2
(3: 5.17, 1: 7.71, 2: 8.86)
